Recorded values, source the supplement of paper PMC10567573.

B1: PSD2 (parent)
chain: LTHFSRRYCQCNPDDSTSEDGIHT

# Variants of: B1
# experiment_description: protein stability index of a GFP-peptide fusion (GPS, HEK-293T) (PSI 1-6); higher = more stable;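 also: lentivirally expressed fusions sorted by FACS into six bins by GFP to DsRed ratio, PSI derived from sequencing read proportions per bin multiplied by bin number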
# measurement_context: c terminus: a fixed tail appended
Label scheme for protein stability index: lower than 3 is -1, 3 and above is 1.

For orientation, consider the following solved cases.
C11Y: 1
N12K: 1
R6L: 1
D14S: -1
H3A: 1

Exam item: Reported protein stability index reaches at least 3 for "S16L" ?
Marked response: 1

Exam item: Reported protein stability index reaches at least 3 for "T17G" ?
Marked response: -1

Exam item: Reported protein stability index reaches at least 3 for "N12D" ?
Marked response: 1

Exam item: Reported protein stability index reaches at least 3 for "S18D" ?
Marked response: 1

Exam item: Reported protein stability index reaches at least 3 for "T2C" ?
Marked response: -1

Exam item: Reported protein stability index reaches at least 3 for "T24N" ?
Marked response: 1

Exam item: Reported protein stability index reaches at least 3 for "R6Y" ?
Marked response: -1

Exam item: Reported protein stability index reaches at least 3 for "L1A" ?
Marked response: 1
